System: MS2 coat protein
assay: apparent Kd, MS2 coat protein; higher = weaker binding; RNA-MaP array; FMN 200 µM where present
reported.conditions: designed as: ON switch for flavin mononucleotide; no ligand
measure: apparent Kd (nM)
Give the value, in units of nM, as a plain number.

Below: 3 sequences and their reported apparent Kd.
>  <primary.sequence>
AGGAAACAUGAGGAUCACCCAUGUAAAAGGUGGUUAGGAUAUGCGAUAAUAAAAAUAAUAGCAGAAGGGACAAGAA

>  <unit.abbrev>
nM

>  <observed.value>
511

$$$$
>  <primary.sequence>
GUGGCAUACUGAGGAUAUUCAUAUAAUAAAUAAACAUGAGGAUCACCCAUGUGGCGAAAGCCUUGGGAGAAGGCAGAAUGCUAC

>  <unit.abbrev>
nM

>  <observed.value>
521

$$$$
>  <primary.sequence>
UUGGACGUCGUAGGAUAUGUAGGAUACUCCUACAUGAGGAUCACCCAUGUUGACAUGGAGGACGGACAGAAGGACGGUGUCCAU

>  <unit.abbrev>
nM

>  <observed.value>
60.5

$$$$

# context switch: different sequence, same apparent Kd
Note apparent Kd for the sequence shown: UGCCUGAGUCGAGGAUAUUAUGGAUCCUCUAAUACAUGAGGAUCACCCAUGUAAUUAAUUAUACAUGAGAAGGUGACUCAGGCU 529

###

System: MS2 coat protein
assay: apparent Kd, MS2 coat protein; higher = weaker binding; RNA-MaP array; FMN 200 µM where present
reported.conditions: designed as: OFF switch for flavin mononucleotide; no ligand
Each entry below carries its reported apparent Kd.
All answers are understood in nM, so give the number only.

>  <primary.sequence>
GUGGUCUCCGCAGGAUAUGGCUCGGGCACGACACCAGAAGGGCGGACAUGAGGAUCACCCAUGUUCGCGGGUGGGUCCUAAGGA

>  <unit.abbrev>
nM

>  <apparent Kd>
6.39

$$$$
>  <primary.sequence>
CAAUGCCUGUCGAUGCUCGACAUGAGGAUCACCCAUGUAUAGCAGGAUAUGCAGAACUGACUCGUGCAGAAGGGCUAUACCUAA

>  <unit.abbrev>
nM

>  <apparent Kd>
25.8

$$$$
>  <primary.sequence>
GAAUAAUUGAUCCUUUUUUAUUACAUGAGGAUCACCCAUGUGCAGGAUAUCGAUUGUUGUAGUUUCGAGAAGGGCAAGAACUGU

>  <unit.abbrev>
nM

>  <apparent Kd>
187

$$$$

Please turn your attention to the following entry.
Identify apparent Kd associated with the sequence UAAACGUUCUAGAAGGUGCUUUUGUUAAACAAGCAAGGAUAUAGACAUGAGGAUCACCCAUGUCUUUGUGACAUCGACAUACUU 8.44

###

System: MS2 coat protein
assay: apparent Kd, MS2 coat protein; higher = weaker binding; RNA-MaP array; FMN 200 µM where present
reported.conditions: ligand present: flavin mononucleotide; designed as: ON switch for flavin mononucleotide
// map apparent Kd to label using class A: < 9 nM; class B: ≥ 9 nM and < 20 nM; class C: ≥ 20 nM

Use these answered entries as a reference point.
>  <primary.sequence>
UAAACAUGAGGAUCACCCAUGUAAAGAUCGGUAGUAGAGAGUGAGGAUAUACUAAAUUUAAUGGAGUAGAAGGCACUGGGUUCU

>  <discrete.label>
class C

$$$$
>  <primary.sequence>
GCAGCACUUUAAAACAUGAGGAUCACCCAUGUCGAUUGUUAUGAGGAUAUGCAUCGGAUGAAGAUGCAGAAGGCAUUGUGCUGC

>  <discrete.label>
class A

$$$$
>  <primary.sequence>
GGAGACCUCACAGGAUAUGCUGGACUUUGUCCAGCAGAAGGGUGAAACAUGAGGAUCACCCAUGUAAUGGUCUCCAAAUUUAAU

>  <discrete.label>
class C

$$$$
>  <primary.sequence>
AUGUGGUUCCCGGCCAUCGUGUACGAGGAUAUCCUCGAACAUGAGGAUCACCCAUGUAACGUUGUGGAGAAGGCGUACGCUUGG

>  <discrete.label>
class A

$$$$
>  <primary.sequence>
CGUCUAUGCUAGAAGGCAUGAAACAUGAGGAUCACCCAUGUCAAAGACAUGAGGAUAUAGCAUAGACGAAAAGUGCGAAAGCAC

>  <discrete.label>
class A

$$$$

Band for the recorded apparent Kd of AAAAAACAUGAGGAUCACCCAUGUCGAAAGACAUGAGGAUAUGUACAGACUUCGGUCUGUACAGAAGGCAUGUCUU ? class B

State the band of AAAAGACAUGAGGAUCACCCAUGUAAAGACGUAGGAGGAUAUGUCUUGAAAAAAGACUUGACAGAAGGCCUGUGUC class B

Exam item: assign AAAAUCAAUUGAGGAUAUUCAUACACUACAUACGGAGAAGGCAAACAAUCAUGAGGACAUGAGGAUCACCCAUGUUGUGACCAU to the correct category. class B

Class label required: CGCUACGUUUCGUAGCAGCUAGGUGAGGAUAUUCAAUUUUUCACAUGAGGAUCACCCAUGUAUGUGAAGAAGGCGCCUAGAAAU class A

Which bin, given its apparent Kd, does CGCGAUGCGGUUGGCCCUGGGCGAGAGGAUAUGGGCAGCGAGACAUGAGGAUCACCCAUGUUUUCUCAGAAGGCUCGAGCAGGC occupy? class B

Which class does AUGGAUAUCACAGGAUAUGAUAUGGAUACCAUAUCAGAAGGGUGAUCCAUCCUCUGUAAAUACAUGAGGAUCACCCAUGUGUCC fall in? class B

Category lookup for the sequence AAAAAAAAAACUGAGGAUAUGAAAUAAUAGACAUGAGGAUCACCCAUGUUUUCGGUCGAAAAAAUGCAGAAGGCAGAAAAAAAAAA class C

Kindly state the category for this sequence: GUGCGAGCCACAGGAUAUCUACAGAUUUAUUGUAGAGAAGGGUGACCUCGUGCACCACAUGAGGAUCACCCAUGUAACUAGGCG class C
